# experiment: Hemolytic activity in human RBC at 100 uM measured after 1 hrs relative to control
# Type: toxicity, cell-based, Erythrocyte
# assay.conditions: red blood cells (erythrocytes), read-out: Activity
Numbered stars: 1 amine (or outer) side, 2 acyl side, 3 side chain; on linkers, the order of the positions; unused ones are H or OH. Bridge positions count the residues as written; N and C are the ends. Square brackets hold non-standard residues; d marks the D form. Peptide text beside a SMILES is read from it. X1 = CC(C)[C@@H](CN[*:1])C(=O)[*:2]; S5 = C=CCCC[C@](C)(N)C(=O)O; Nle = CCCC[C@H](N)C(=O)O; βAla = NCCC(=O)O
Classify by measured hemolysis at 1 h, 100 µM: MET if it is equal to or exceeds 3%, NOT MET if it is smaller.

>  <compound>
CCCC[C@H](NC(=O)[C@H](CCC(=O)O)NC(=O)[C@H](CCCNC(=N)N)NC(=O)[C@H](Cc1ccc(O)cc1)NC(=O)[C@H](CCCCN)NC(=O)[C@H](C)NC(=O)[C@]1(C)CCC/C=C\CCC[C@](C)(NC(=O)[C@H](CNC(=O)[C@H](CCCCN)NC(=O)[C@H](Cc2ccccc2)NC(=O)CCNC(C)=O)C(C)C)C(=O)N[C@@H](CCCNC(=N)N)C(=O)N[C@@H](CCCNC(=N)N)C(=O)N[C@@H]([C@@H](C)O)C(=O)N1)C(N)=O (Ac-[βAla]FK[X1][S5]RRT[S5]AKYRE[Nle]-NH2; staple (Z) 5-9)

>  <assigned.category>
MET

$$$$
>  <compound>
CCCC[C@H](NC(=O)[C@H](CCC(=O)O)NC(=O)[C@H](CCCNC(=N)N)NC(=O)[C@H](Cc1ccc(O)cc1)NC(=O)[C@H](CCCCN)NC(=O)CNC(=O)[C@]1(C)CCC/C=C\CCC[C@](C)(NC(=O)[C@@H](NC(=O)[C@H](CCCCN)NC(=O)[C@H](Cc2ccccc2)NC(=O)CCNC(C)=O)C(C)C)C(=O)N[C@@H](CCCNC(=N)N)C(=O)N[C@@H](CCCNC(=N)N)C(=O)N[C@@H]([C@@H](C)O)C(=O)N1)C(=O)N[C@@H](CC(C)C)C(N)=O (Ac-[βAla]FKV[S5]RRT[S5]GKYRE[Nle]L-NH2; staple (Z) 5-9)

>  <assigned.category>
NOT MET

$$$$
>  <compound>
CCCC[C@H](NC(=O)[C@H](CCC(=O)O)NC(=O)[C@H](CCCNC(=N)N)NC(=O)[C@H](Cc1ccc(O)cc1)NC(=O)[C@H](CCCCN)NC(=O)[C@H](C)NC(=O)[C@]1(C)CCC/C=C\CCC[C@](C)(NC(=O)[C@@H](NC(=O)[C@H](CCCCN)NC(=O)[C@H](Cc2ccccc2)NC(=O)CCNC(C)=O)C(C)C)C(=O)N[C@@H](CCCNC(=N)N)C(=O)N[C@@H](CCCNC(=N)N)C(=O)N[C@@H]([C@@H](C)O)C(=O)N1)C(=O)N[C@@H](CC(C)C)C(N)=O (Ac-[βAla]FKV[S5]RRT[S5]AKYRE[Nle]L-NH2; staple (Z) 5-9)

>  <assigned.category>
MET

$$$$
>  <compound>
CCCC[C@H](NC(=O)[C@H](CCC(=O)O)NC(=O)[C@H](CCCNC(=N)N)NC(=O)[C@]1(C)CCC/C=C\CCC[C@](C)(NC(=O)[C@H](CCCNC(=N)N)NC(=O)[C@H](CCCNC(=N)N)NC(=O)[C@H](C)NC(=O)[C@@H](NC(=O)[C@H](CCCCN)NC(=O)[C@H](Cc2ccccc2)NC(=O)CCNC(C)=O)C(C)C)C(=O)N[C@@H](C(C)C)C(=O)N[C@@H](C)C(=O)N[C@@H](CCCCN)C(=O)N1)C(=O)N[C@@H](CC(C)C)C(N)=O (Ac-[βAla]FKVARR[S5]VAK[S5]RE[Nle]L-NH2; staple (Z) 8-12)

>  <assigned.category>
MET

$$$$
>  <compound>
CCCC[C@H](NC(=O)[C@H](CCC(=O)O)NC(=O)[C@H](CCCNC(=N)N)NC(=O)[C@H](Cc1ccc(O)cc1)NC(=O)[C@H](CCCCN)NC(=O)[C@H](C)NC(=O)[C@]1(C)CCC/C=C\CCC[C@](C)(NC(=O)[C@@H](NC(=O)[C@H](CCCCN)NC(=O)[C@H](Cc2ccccc2)NC(=O)CCNC(C)=O)C(C)C)C(=O)N[C@@H](CCCCN)C(=O)N[C@@H](CCCNC(=N)N)C(=O)N[C@@H]([C@@H](C)O)C(=O)N1)C(=O)N[C@@H](CC(C)C)C(N)=O (Ac-[βAla]FKV[S5]KRT[S5]AKYRE[Nle]L-NH2; staple (Z) 5-9)

>  <assigned.category>
MET

$$$$
>  <compound>
CCCC[C@H](NC(=O)[C@H](CCC(=O)O)NC(=O)[C@H](CCCNC(=N)N)NC(=O)[C@H](Cc1ccc(O)cc1)NC(=O)[C@H](CCCCN)NC(=O)[C@H](C)NC(=O)[C@]1(C)CCC/C=C\CCC[C@](C)(NC(=O)[C@@H](NC(=O)[C@H](CCCNC(=N)N)NC(=O)[C@H](Cc2ccccc2)NC(=O)CCNC(C)=O)C(C)C)C(=O)N[C@@H](CCCNC(=N)N)C(=O)N[C@@H](CCCNC(=N)N)C(=O)N[C@@H]([C@@H](C)O)C(=O)N1)C(=O)N[C@@H](CC(C)C)C(N)=O (Ac-[βAla]FRV[S5]RRT[S5]AKYRE[Nle]L-NH2; staple (Z) 5-9)

>  <assigned.category>
NOT MET

$$$$
>  <compound>
CCCC[C@H](NC(=O)[C@H](CCC(=O)O)NC(=O)[C@H](CCCNC(=N)N)NC(=O)[C@H](Cc1ccc(O)cc1)NC(=O)[C@H](CCCCN)NC(=O)[C@H](C)NC(=O)[C@]1(C)CCC/C=C\CCC[C@](C)(NC(=O)[C@@H](NC(=O)[C@H](CCCCN)NC(=O)[C@H](Cc2ccccc2)NC(=O)CCNC(C)=O)C(C)C)C(=O)N[C@@H](CCCNC(=N)N)C(=O)N[C@@H](CCCCN)C(=O)N[C@@H]([C@@H](C)O)C(=O)N1)C(=O)N[C@@H](CC(C)C)C(N)=O (Ac-[βAla]FKV[S5]RKT[S5]AKYRE[Nle]L-NH2; staple (Z) 5-9)

>  <assigned.category>
MET

$$$$
>  <compound>
CCCC[C@H](NC(=O)[C@H](CCC(=O)O)NC(=O)[C@H](CCCNC(=N)N)NC(=O)[C@H](Cc1ccc(O)cc1)NC(=O)[C@H](CCCCN)NC(=O)[C@H](C)NC(=O)[C@@H](NC(=O)[C@@H](NC(=O)[C@H](CCCNC(=N)N)NC(=O)[C@H](CCCNC(=N)N)NC(=O)[C@H](C)NC(=O)[C@@H](NC(=O)[C@H](CCCCN)NC(=O)[C@H](Cc1ccccc1)NC(=O)CCNC(C)=O)C(C)C)[C@@H](C)O)C(C)C)C(=O)N[C@@H](CC(C)C)C(N)=O (Ac-[βAla]FKVARRTVAKYRE[Nle]L-NH2)

>  <assigned.category>
NOT MET

$$$$
